This collection of values is drawn from PubChem BioAssay AID493145.

target: Intestinal-type alkaline phosphatase (Homo sapiens); experiment: human IAP activators, SAR follow-up, mouse IAP activator project, biochemical, human enzyme for mouse series (AID 493145); settings: purified human intestinal alkaline phosphatase, enzymatic activity
Active and inactive are the calls of the source. No rule for the calls is given here.
Give one outcome, nothing more. List: active, inactive

compound	category
CC(C(=O)NCCc1ccc(O)cc1)N1C(=O)/C(=C/c2ccco2)SC1=S (stereo unspecified)	inactive

Assay outcome for CCOC(=O)NC(=O)CSc1sc2c(O)cc(=O)[nH]c2c1C#N : what was it?
inactive

Continue with O=C(CN1C(=O)/C(=C\c2ccco2)SC1=S)Nc1ccc(O)cc1C(=O)O
inactive

Continue with Cc1ccc(NC(=O)CCNS(=O)(=O)c2ccc3[nH]c(=O)oc3c2)cc1N(C)C
inactive

Continue with COc1cc(Cl)c(C)cc1NC(=O)CSc1sc2c(O)cc(=O)[nH]c2c1C#N
inactive

###

target: Intestinal-type alkaline phosphatase (Homo sapiens) (UniProt P09923); assay: human IAP activators, SAR follow-up, mouse IAP activator project, biochemical, human enzyme for mouse series (AID 493145); settings: purified human intestinal alkaline phosphatase, enzymatic activity
Sequence (P09923 whole entry, looked up): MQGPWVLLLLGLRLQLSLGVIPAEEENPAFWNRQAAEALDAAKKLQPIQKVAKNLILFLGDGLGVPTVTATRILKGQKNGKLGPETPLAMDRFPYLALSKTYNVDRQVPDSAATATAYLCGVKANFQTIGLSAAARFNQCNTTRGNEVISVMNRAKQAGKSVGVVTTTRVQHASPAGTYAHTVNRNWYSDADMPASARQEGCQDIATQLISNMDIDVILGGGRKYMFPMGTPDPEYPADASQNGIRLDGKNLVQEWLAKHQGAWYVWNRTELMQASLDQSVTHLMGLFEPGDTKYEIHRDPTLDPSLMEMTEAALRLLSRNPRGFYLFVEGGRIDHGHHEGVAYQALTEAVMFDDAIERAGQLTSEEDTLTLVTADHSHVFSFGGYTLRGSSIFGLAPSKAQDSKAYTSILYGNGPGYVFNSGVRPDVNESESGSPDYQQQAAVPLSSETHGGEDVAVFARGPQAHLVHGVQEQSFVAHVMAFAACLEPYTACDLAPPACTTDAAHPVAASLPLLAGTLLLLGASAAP
Active and inactive are the calls of the source. How the calls were made is not given here.
Give one outcome, nothing more. List: active, inactive

Consider the worked cases shown below.
compound	category
CCc1nnc(NC(=O)CSc2sc3c(O)cc(=O)[nH]c3c2C#N)s1	inactive
O=C(C1CCN(S(=O)(=O)c2ccc3[nH]c(=O)oc3c2)CC1)N1CC=C(c2ccccc2)CC1	inactive

Assay outcome for O=C(CN1C(=O)/C(=C\c2ccco2)SC1=S)Nc1ccc(C(=O)O)cc1 : what was it?
inactive

Continue with COc1cc(C(=O)NNC(=O)c2n[nH]c3ccccc23)cc(OC)c1OC
active

###

biological target: Intestinal-type alkaline phosphatase (Homo sapiens) (UniProt P09923); assay: human IAP activators, SAR follow-up, mouse IAP activator project, biochemical, human enzyme for mouse series (AID 493145); settings: purified human intestinal alkaline phosphatase, enzymatic activity
Active and inactive are the calls of the source. No rule for the calls is given here.
Give one outcome, nothing more. List: active, inactive

Consider the worked cases shown below.
compound	category
CCN(C(=O)CN1C(=O)/C(=C\c2ccco2)SC1=S)C1CCS(=O)(=O)C1 (stereo not given)	active
O=C(CCNS(=O)(=O)c1ccc2[nH]c(=O)oc2c1)Nc1cccc(-c2ccno2)c1	inactive
COc1cc(C(=O)NNC(=S)NC(=O)c2ccc(Cl)cc2)cc(OC)c1OC	active

Assay outcome for O=C(CN1C(=O)/C(=C/c2ccco2)SC1=S)Nc1ccc2nccnc2c1 : what was it?
inactive

Continue with O=C(CN1C(=O)/C(=C/c2ccco2)SC1=S)Nc1cccc(C(=O)O)c1
inactive

Continue with N#Cc1c(SCC(=O)Nc2ccc(C(F)(F)F)cc2)sc2c(O)cc(=O)[nH]c12
inactive

Continue with COc1cc([N+](=O)[O-])ccc1NC(=S)NCCC(c1ccccc1)c1ccccc1
inactive

Continue with O=C(N/N=C/C1CC=CCC1)c1cc(O)c(O)c(O)c1 (stereo not given)
inactive

Continue with N#Cc1c(SCC(=O)Nc2nc3ccccc3s2)sc2c(O)cc(=O)[nH]c12
inactive

Continue with N#Cc1c(SCC(=O)Nc2ccccc2C(F)(F)F)sc2c(O)cc(=O)[nH]c12
inactive

###

target: Intestinal-type alkaline phosphatase (Homo sapiens) (UniProt P09923); assay: human IAP activators, SAR follow-up, mouse IAP activator project, biochemical, human enzyme for mouse series (AID 493145); conditions: purified human intestinal alkaline phosphatase, enzymatic activity
Activity calls are given as the source filed them. The rule behind the calls is not given here.
Give one outcome, nothing more. List: active, inactive

molecule	category
O=C(NN=Cc1cccnc1)c1cc(O)c(O)c(O)c1	inactive
COc1ccc(NC(=O)CSc2sc3c(O)cc(=O)[nH]c3c2C#N)c(OC)c1	inactive
CCOc1cccc(NC(=O)CSc2sc3c(O)cc(=O)[nH]c3c2C#N)c1	inactive
COc1cccc(/C=N/NC(=O)c2cc(O)c(O)c(O)c2)c1	inactive

Assay outcome for CCOc1ccccc1NC(=O)CCNS(=O)(=O)c1ccc2[nH]c(=O)oc2c1 : what was it?
inactive

Continue with CCc1ccc(NC(=O)CN(C)S(=O)(=O)c2ccc3[nH]c(=O)oc3c2)cc1
inactive

Continue with COc1ccccc1NC(=O)CCNS(=O)(=O)c1ccc2[nH]c(=O)oc2c1
inactive

Continue with N#Cc1c(SCC(=O)Nc2ccc(Cl)cc2Cl)sc2c(O)cc(=O)[nH]c12
inactive

Continue with Cc1ccc(NC(=O)CCNS(=O)(=O)c2ccc3[nH]c(=O)oc3c2)cc1F
inactive

Continue with O=C(CN1C(=O)/C(=C/c2ccco2)SC1=S)Nc1ccc(C(=O)O)cc1
inactive

Continue with O=C(O)CC(C(=O)O)N1C(=O)/C(=C/c2ccc(-c3nc4ccccc4s3)o2)SC1=S (stereo unspecified)
inactive

Continue with CCN(C(=O)C(C)N1C(=O)/C(=C/c2ccco2)SC1=S)C1CCS(=O)(=O)C1 (stereo unspecified)
active

Continue with N#Cc1c(SCC(=O)Nc2cccc(F)c2)sc2c(O)cc(=O)[nH]c12
inactive

Continue with CCOC(=O)N1CCN(S(=O)(=O)c2ccc3[nH]c(=O)oc3c2)CC1
inactive

Continue with Cc1ccc(NC(=O)CCNS(=O)(=O)c2ccc3[nH]c(=O)oc3c2)c(C)c1
inactive
